PBMC pSTAT3 IC50 reference
Molecular target: T1, interleukin-23 receptor (IL-23R), Q5VWK5
T1 chain: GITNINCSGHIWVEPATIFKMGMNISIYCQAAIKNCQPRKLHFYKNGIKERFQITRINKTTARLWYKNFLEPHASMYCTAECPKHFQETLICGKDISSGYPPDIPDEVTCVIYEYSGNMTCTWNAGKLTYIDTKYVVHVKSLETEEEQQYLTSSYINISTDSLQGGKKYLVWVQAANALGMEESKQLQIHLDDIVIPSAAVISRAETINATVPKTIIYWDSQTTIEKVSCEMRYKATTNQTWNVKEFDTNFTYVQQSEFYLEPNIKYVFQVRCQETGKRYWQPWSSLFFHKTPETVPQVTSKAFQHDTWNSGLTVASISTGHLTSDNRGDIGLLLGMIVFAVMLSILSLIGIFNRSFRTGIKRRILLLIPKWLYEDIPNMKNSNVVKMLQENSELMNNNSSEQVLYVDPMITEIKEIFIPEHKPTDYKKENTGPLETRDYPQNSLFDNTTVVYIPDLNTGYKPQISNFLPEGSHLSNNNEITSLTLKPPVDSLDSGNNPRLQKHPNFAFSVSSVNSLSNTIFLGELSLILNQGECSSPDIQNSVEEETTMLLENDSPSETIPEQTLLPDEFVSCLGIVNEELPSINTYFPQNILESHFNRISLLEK
Assay: cell-based or functional assay
Positions of bridges follow the written chain, without caps; N, C: chain ends. Non-standard residues stand in square brackets, D forms with d. No end group written: not given here. 2Nal(6-OH) = N[C@@H](Cc1ccc2cc(O)ccc2c1)C(=O)O; Trp(7-Me) = Cc1cccc2c(C[C@H](N)C(=O)O)c[nH]c12; AEF = NCCOc1ccc(C[C@H](N)C(=O)O)cc1; 3Pal = N[C@@H](Cc1cccnc1)C(=O)O; NMeK = CN[C@@H](CCCCN)C(=O)O; Pen = CC(C)(S)[C@H](N)C(=O)O; Thp = NC1(C(=O)O)CCOCC1; Sar = CNCC(=O)O

[Pen]NT[Trp(7-Me)]K(Ac)[Pen][AEF][2Nal(6-OH)][Thp]KN[3Pal][Sar] (disulfide 1-6 (inferred); ends not checked; also: K10: lipidated lysine, lipid not given here) [SEQ ID NO: 129]    < 1 nM

Would you kindly look at the next entry?
Ask: I would be grateful if you could share the reported PBMC pSTAT3 IC50 for [(R)‑3‑carboxy‑2‑(4-(((R)-5-carboxy-5-hydrazineylpentyl)amino)-4-oxobutanamido)‑N,N,N‑trimethylpropan‑1‑aminium][Pen]NT[Trp(7-Me)]K(Ac)[Pen][2‑amino‑3‑(4-(2-aminoethoxy)phenyl)propanoic acid][2‑amino‑3‑(6-hydroxynaphthalen-2-yl)propanoic acid][Thp]EN[3Pal][NMeK] (disulfide 2-7 (inferred); not fully specified (residue 14); ends not checked; also: X14: lipidated N-methyl-lysine, lipid not given here) [SEQ ID NO: 210] .
Reply: < 1 nM
